Measured Percent Effect of individual entries
Test system: Wolbachia pipientis
procedure_details: Anti-Wolbachia Cell-Based Screen
Type: functional
Parameters: scale not given: in the data most compounds retested in dose-response had high values
run_conditions: 5 µM
Hit rate of the full screen: of about 48,000 compounds, about 13,000 (27%) showed an effect of 50% or more. The list shows a part of the results.
Number only, in %; omit the unit.

CCN1C[C@H]2C3(CCN(S(C)(=O)=O)CC3)CC[C@@]2(C(=O)N(C)C)C1.O=C(O)C(F)(F)F: -24.55
CNC(=O)[C@@]12CCC3(CCN(C(=O)C(C)C)CC3)[C@@H]1CN(S(C)(=O)=O)C2: 104.1

Lookup: Would you kindly share the measured Percent Effect for CC(C)c1ccc(S(=O)(=O)NC2CCN(CC(F)(F)F)C2)cc1 (configuration not stated) ?
Found: 12.82

Lookup: Check CC(C)NC(=O)N1CCC2(CC1)CC[C@@]1(C(=O)N(C)C)CN(C)C[C@@H]21 too.
Found: -18.22

Lookup: And what about the compound CNC(=O)N1CCC2(CC1)CC[C@@]1(C(=O)NC)CN(S(C)(=O)=O)C[C@@H]21 ?
Found: 99.51

Lookup: Thanks! And Cn1cc(CN2CC[C@@H]3[C@@H](CCC(=O)N3CCC3=CCCCC3)C2)cn1 ?
Found: -6.139

Lookup: Thanks! And CC(=O)N1CCC2(CC1)CC[C@@]1(C(=O)N(C)C)CN(S(C)(=O)=O)C[C@@H]21 ?
Found: -18.69

---

Tested on: Wolbachia pipientis
procedure_details: Anti-Wolbachia Cell-Based Screen
Format: functional
Design: scale not given: in the data most compounds retested in dose-response had high values
run_conditions: 5 µM
The campaign covered roughly 48,000 compounds. About 13,000 (27%) showed an effect of 50% or more. The list shows a part of the results.
property_measured: Percent Effect (%)
Your answer is read as %, so omit the unit and give the number.

Examples from the recorded data:
O=C(Nc1ncn(CC(=O)N2CCCCCC2)n1)C1CCCO1 (stereo unspecified): -2.557
CNC(=O)c1cccc(CCNC(=O)N2CCc3ccccc3C2)c1: 1.406
CC(C(=O)NCC(C)(C)c1ccc2c(c1)OCCO2)n1cncn1 (stereo unspecified): 97.81
Cc1nn(-c2ccccc2)c(C)c1CNC1CCc2ncnn2C1 (stereo unspecified): 1.377
CCc1c(C)nc2n(c1=O)CC(C(=O)Nc1nc3c(s1)CCCC3)CS2 (stereo unspecified): 1.424

Lookup: Which measured Percent Effect value corresponds to O=C(O)C(F)(F)F.c1cc(CN2Cc3nnn(CC4CC4)c3C(COCC3CC3)C2)co1 (stereo unspecified) ?
Found: 1.787

Lookup: Next entry: CN(C)C(=O)N1Cc2nnn(CC3CC3)c2C(COCC2CC2)C1 (stereo unspecified)
Found: 117.2

Lookup: Now try Cc1nc(-c2ccccc2)sc1CNC1CCc2ncnn2C1 (stereo unspecified) .
Found: 88.63

Lookup: What about CCc1c(C)nn(CCNC(=O)C2CCCN(C(=O)N(C)C)C2)c1C (stereo unspecified) ?
Found: -3.279

Lookup: Also check CC(C)c1cc2c(s1)NC(c1ccccc1)NC2=O (stereo unspecified)
Found: 97.8

Lookup: Try CN(C(=O)c1ccc(OCC(F)F)nc1)c1ccc2c(c1)CCO2 next.
Found: 2.001

Lookup: Thanks! And CN1CCN(C(=O)[C@@H]2CCO[C@@H]3CCN(c4ncccn4)C[C@@H]32)CC1 ?
Found: -8.422

Lookup: One more compound: Cl.O=C(Nc1nc2c(s1)CNCC2)C1CC1
Found: 114.1

Lookup: Try the compound Cc1ccc(F)cc1-c1ccc(N)nc1
Found: -13.87

Lookup: Next record, please: Cc1ccnc(OC[C@@]23CCO[C@@H]2CCN(c2ncc(F)cn2)C3)n1.O=C(O)C(F)(F)F
Found: -3.381

Lookup: Param item: CC(NC(=O)Nc1nncs1)C(=O)NC1CCCC1 (stereo unspecified)
Found: 12.84

Lookup: Lookup CCc1ccc(CNc2cc(-c3ccoc3C)nn2CCO)o1
Found: -16.42

Lookup: Query Cc1nn(Cc2ccccc2)c(C)c1CNC1CCc2ncnn2C1 (stereo unspecified) next
Found: 117.1

Lookup: Further, for CC(C(=O)NCc1ccnc(N(C)C)c1)n1cncn1 (stereo unspecified) ?
Found: -16.73

Lookup: Can you check Cn1ccc(C(=O)Nc2nc(-c3ccc(Cl)cc3)n[nH]2)cc1=O next?
Found: 5.787

Lookup: Same thing, different compound: COc1cccc(C(=O)N2CCN(C(=O)CCCc3cn[nH]c3)CC2)c1
Found: -9.764

---

Each record here notes measured Percent Effect.
System: Wolbachia pipientis
procedure_details: Anti-Wolbachia Cell-Based Screen
Assay type: functional
Parameters: scale not given: in the data most compounds retested in dose-response had high values
run_conditions: 5 µM
In all, about 48,000 compounds went through this assay and about 13,000 (27%) showed an effect of 50% or more. This is one part of the list.
Provide the reading as a plain figure in %.

CC(C)c1noc(CN(C)C(c2ccc(F)cc2)c2cccnc2)n1 (stereo not drawn): 7.35

Lookup: Value wanted: Percent Effect (Wolbachia pipientis) of entry COc1cc2c(nn1)CCN(Cc1nnc(Cc3ccccc3)o1)C2
Found: 16.22

Lookup: Would you kindly repeat that for CN(Cc1cc(Br)cn1C)C(=O)c1ccon1 ?
Found: -0.2013

---

Examples of compounds with documented Percent Effect follow.
System: Wolbachia pipientis
procedure_details: Anti-Wolbachia Cell-Based Screen
Type: functional
Design: scale not given: in the data most compounds retested in dose-response had high values
run_conditions: 5 µM
The campaign covered roughly 48,000 compounds. About 13,000 (27%) showed an effect of 50% or more. This is one part of the list.
Report only the number, with the unit % understood.

Look over these answered cases.
CN1CCC(c2nnc3ccc(C(=O)N4CCCCC4)cn23)C1.O=C(O)C(F)(F)F (stereo not given): -6.443
CN(C)C(=O)N1CCC2(CC(=O)N(c3ccc4c(c3)OCO4)C2)C1 (stereo not given): 3.437
Cc1ccccc1CNC(=O)N1C[C@H]2C[C@H](C(=O)N3CCCC3)[C@@H](C1)O2: 2.79
CC(C)CN1C[C@H]2C[C@H](C(=O)N3CCCC3)[C@@H](C1)O2.O=C(O)C(F)(F)F: 105.1

For the next question, use this compound.
Lookup: # query: Percent Effect | item O=C(C1SCCc2sccc21)N1CCN(C2CC2)C(=O)C1 (stereo not given) | system: Wolbachia pipientis
Found: -5.096

---

Test system: Wolbachia pipientis
procedure_details: Anti-Wolbachia Cell-Based Screen
Format: functional
Parameters: scale not given: in the data most compounds retested in dose-response had high values
run_conditions: 5 µM
Among all 48,000 compounds or so, about 13,000 (27%) showed an effect of 50% or more. Some of the results follow.
property_measured: Percent Effect (%)
Give the quantity in %, number only.

Reference set, count: 5
Cc1ccc(-c2nc(C3CCN(C(=O)c4ccn(C)n4)CC3)no2)cn1: 126.5
O=C1NCCCC[C@@H]1Nc1ccc(-c2nc(C3CC3)no2)cn1: -3.27
CS(=O)(=O)NC[C@]12COC[C@H]1CN(C(=O)CCc1ccccc1)C2: -0.4913
Cc1cn[nH]c1C1COCCN1C(=O)c1cc(F)ccc1F (stereo unspecified): 95.39
COC[C@]12COC[C@H]1CN(C(=O)C1CCSCC1)C2: -5.007

Lookup: Given the molecule Cc1noc(-c2ccc(N3CCC(C(=O)N4CCCC4)CC3)nc2)n1 , what is its reported Percent Effect?
Found: -5.391

---

Entries and their measured Percent Effect follow.
Tested on: Wolbachia pipientis
procedure_details: Anti-Wolbachia Cell-Based Screen
Type: functional
Parameters: scale not given: in the data most compounds retested in dose-response had high values
run_conditions: 5 µM
In all, about 48,000 compounds went through this assay and about 13,000 (27%) showed an effect of 50% or more. The list shows a part of the results.
Quick reminder: number only, in %, skip the unit.

COc1ccc(Br)cc1SCCS(C)(=O)=O: 106.5
Cn1cc(CNCCc2cccnc2)c(-c2cccnc2)n1: 4.12
COc1ccc(Br)cc1CCC(=O)N1CCCC1: -8.693
Cc1cc(CNC(=O)Nc2cc(F)cc(N3CCCC3)c2)no1: -57.71
CS(=O)(=O)CCCSCc1ccc(Br)c(F)c1: -6.245
CN(C)C(C)(C)CNCc1cn(C)nc1-c1cccnc1.Cl: 8.677

Lookup: Request body: readout Percent Effect, system Wolbachia pipientis, query O=C(COc1cc(Cl)cc(Cl)c1)NCc1nncn1C1CC1 . Return the value.
Found: 2.768

Lookup: What do you get for CCCNCc1cn(C)nc1-c1cccnc1.Cl ?
Found: 13.76

---

Reported Percent Effect is given for each of the following molecules.
System: Wolbachia pipientis
procedure_details: Anti-Wolbachia Cell-Based Screen
Assay type: functional
Parameters: scale not given: in the data most compounds retested in dose-response had high values
run_conditions: 5 µM
The whole screen tested about 48,000 compounds, of which about 13,000 (27%) showed an effect of 50% or more. The list shows a part of the results.
The response must be a number in % with no trailing unit.

For orientation, consider the following solved cases.
Cc1cccc(COC[C@@]23CCC[C@@H]2CN(C(=O)Cc2ccco2)C3)n1: 13.36
CCOCCN1CCC(c2cnccn2)CC1: 103.5
O=C(O)C(F)(F)F.c1csc(CN2CCc3ncnc(C4CCOC4)c3CC2)n1 (stereo not drawn): 8.568
CC(C)c1nc(C2CCCN2c2cnc3ccccc3n2)no1 (stereo not drawn): -9.022
O=C(CCn1cncn1)NC1CCS(=O)(=O)C1 (stereo not drawn): 5.446

Lookup: So what's the measured Percent Effect for this one? O=C(NCCC(=O)N1CCCC1)C(OC1CCCC1)c1ccccc1 (stereo not drawn)
Found: -0.3907

Lookup: Now the molecule O=C(CCCn1cncn1)NC1CCc2nccn2C1 (stereo not drawn)
Found: 92.38

Lookup: // next record CCSc1ccccc1C(=O)NCCn1nc(-n2cncn2)ccc1=O
Found: 112

Lookup: And the next one, CCSc1ccccc1C(=O)NCCn1nc(C(F)(F)F)n(C)c1=O ?
Found: -21.23

Lookup: Also, CSCCc1nc(-c2ccc3c(c2)OCO3)n(C)n1 please.
Found: -7.384

Lookup: And for O=C(NS(=O)(=O)Cc1ccc(F)cc1)C1CCOc2ccccc21 (stereo not drawn) ?
Found: -4.826

Lookup: Similarly, CCN(CC)C(=O)[C@@H]1C[C@@H](NC(=O)c2ccn(C(C)(C)C)c2)CN1C ?
Found: -2.553

Lookup: Field entry: CS(=O)(=O)N1CCCN(C(=O)c2ccc(Cn3ccccc3=O)o2)CC1
Found: 2.265

Lookup: Repeat with CC(C)(C)N1CC(C(=O)N2CCN(CCn3cccc3)CC2)CC1=O (stereo not drawn)
Found: -2.783

Lookup: Next record, please: O=C(CSc1nncs1)N1CCN(Cc2ccc(Cl)cc2)CC1
Found: -10.59

Lookup: Entry Fc1ccc(CCN2CCC(c3nnc(-c4cccnc4)o3)CC2)cc1 please
Found: -17.22

Lookup: And CC(=O)N1CCCN(C2CCCCc3ccccc32)CC1 (stereo not drawn) ?
Found: 16.59

Lookup: Could you do the same for COc1ccc(NC(=O)N2CCC3(CC2)NC(=O)CC3C(=O)O)c(C)c1 (stereo not drawn) , please?
Found: 2.707
